# system: T1, Human IL-17A (human, UniProt Q16552 20-155, limits assumed)
# T1 construct: Biotinylated in the ELISAs; purified recombinant protein in SPR; also called hIL17A; hIL-17
# T1 sequence (Q16552 20-155 limits assumed): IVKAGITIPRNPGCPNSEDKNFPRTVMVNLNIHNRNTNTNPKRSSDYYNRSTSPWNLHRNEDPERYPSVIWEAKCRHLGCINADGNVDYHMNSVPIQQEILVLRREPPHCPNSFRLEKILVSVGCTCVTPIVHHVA
# experiment_description: ELISA, captured antibody, biotin-human IL-17 titrated
Collected EC50 values appear next to each entry.
readout_name: EC50 (pM)

- binder: "IL17-h10F7M-A16 hIgG1/K mut (antibody, V domains shown, Full length human IgG1/kappa, IgG1 mut(234,235); also called h10F7-A16; J439M1S2(H)3 #A16) VH: EVQLVQSGAEVKKPGSSVKVSCKASGYTFSDYEIHWVRQAPGQGLEWMGVNDPESGGTFYNQKFDGRVTLTADESTSTAYMELSSLRSEDTAVYYCTRYDKWYSFEGMDIWGQGTTVTVSS VL: DIQMTQSPSSLSASVGDRVTITCSASQGIRSYIDWFQQKPGKSPKRLIYATFDLASGVPSRFSGSGSGTDYTLTISSLQPEDFATYYCRQVGNYPGTFGQGTKLEIK"
  readout_name: "EC50"
  observed_measurement: 70
- binder: "IL17-h10F7M-A6 hIgG1/K mut (antibody, V domains shown, Full length human IgG1/kappa, IgG1 mut(234,235); also called h10F7-A6; J439M1S2(H)3 #A6) VH: EVQLVQSGAEVKKPGSSVKVSCKASGYTFTDYEIHWVRQAPGQGLEWIGVNDPDSGGTLYNQKFDGRVTLTADESTSTAYMELSSLRSEDTAVYYCTRYDKWYSFEGMDIWGQGTTVTVSS VL: DIQMTQSPSSLSASVGDRVTITCSASQGIRSYIDWFQQKPGKSPKRLIYATFDLASGVPSRFSGSGSGTDYTLTISSLQPEDFATYYCRQVGNYPGTFGQGTKLEIK"
  readout_name: "EC50"
  observed_measurement: 80
- binder: "IL17-h10F7M11 hIgG1/K mut (antibody, V domains shown, Full length human IgG1/kappa, IgG1 mut(234,235); also called J439M1S3R5#11; PR-1263009) VH: EVQLVQSGAEVKKPGSSVKVSCKASGYTFTDYEIHWVRQAPGQGLEWMGVNDPESGGTFYNQKFDGRVTLTADESTSTAYMELSSLRSEDTAVYYCTRYSKWDSFDGMDYWGQGTTVTVSS VL: DIQMTQSPSSLSASVGDRVTITCRASSGIISYIDWFQQKPGKAPKRLIYATFDLASGVPSRFSGSGSGTDYTLTISSLQPEDFATYYCRQVGSYPETFGQGTKLEIK"
  readout_name: "EC50"
  observed_measurement: 40
- binder: "IL17-h10F7M-A11 hIgG1/K mut (antibody, V domains shown, Full length human IgG1/kappa, IgG1 mut(234,235); also called h10F7-A11; J439M1S2(H)3 #A11) VH: EVQLVQSGAEVKKPGSSVKVSCKASGYTFTDYEIHWVRQAPGQGLEWIGVNDPESGGTFYNQKFDGRVTLSADESTSTAYMELSSLRSEDTAVYYCTRYDKYWSFEGMDYWGQGTTVTVSS VL: DIQMTQSPSSLSASVGDRVTITCRASSGIISYIDWFQQKPGKAPKRLIYATFDLASGVPSRFSGSGSGTDYTLTISSLQPEDFATYYCRQVGSYPETFGQGTKLEIK"
  readout_name: "EC50"
  observed_measurement: 40
